target: Lysine-specific histone demethylase 1A (Homo sapiens, UniProt O60341); assay: Non-competitive inhibition of recombinant full-length His6-tagged LSD1 (unknown origin) using dimethylated K4N-terminal H3 peptide as substrate at 100 nM by Michaelis-Menten plot analysis
pKi: −log10 of the molar value.
endpointName: pKi

[
  {
    "structureAsSmiles": "C/C(=N\\NC(=O)c1cccc(S(=O)(=O)N2CCOCC2)c1)c1cc(Cl)ccc1O",
    "endpointName": "pKi",
    "reading": 7.26
  }
]

Taken from ChEMBL document CHEMBL3102716.
